Assay target: T1, 3A
T1 construct: also called HLA-A2 / point-mutant NY-ESO peptide 3A complex on T2 cells
Assay remarks: flow cytometry on peptide-pulsed T2 cells, scFv 100 nM
Reported standardized gMFI values for the following binders.
Note: the reply should be a number with no unit written.

Here's what some known entries look like.
NYC-0004 (scFv, not shown: small tags and cut ends, also called T1 scFv; NYC-0004 tag adduct) scFv: EVQLLESGGGLVQPGGSLRLSCAASGFTFSTYQMSWVRQAPGKGLEWVSGIVSSGGSTAYADSVKGRFTISRDNSKNTLYLQMNSLRAEDTAVYYCAGELLPYYGMDVWGQGTTVTVSSGGGGSGGGGSGGGGSQSELTQPRSVSGSPGQSVTISCTGTERDVGGYNYVSWYQQHPGKAPKLIIHDVIERSSGVPDRFSGSKSGNTASLTISGLQAEDEADYYCWSFAGGYYVFGTGTDVTVL: 4.75
NYA-2035 (scFv) scFv: GEVQLVESGGGVVQPGRSLTPSCSASGFSIRSYDIHWVRLAPGKGLEWVATISYDGSQKYFADSVKGRFTIFRDESENMVYLQMSGLRVEDTAVYHCARGSSGHYEAFDIWGQGTMVTVSSGGGGSGGGGSGGGGSQSVLTQPPSVSAAPGQKVTISCSGSSSNIGNWKVSWYQQLPGTAPKLLIYDNNKRPSGIPDRFSGSKSGTSATLGITGLQTGDEADYYCGTWDSSLSAPWVFGGGTKVTVLGAAAGAGGDYKDDDDKGAAAHHHHHH: 5.81
NYA-1154 (scFv) scFv: GEVQLVESGGGVVQPGRSLTPSCSASGFSIRSYDMHWVRQAPGKGLEWVATISYDGSQKYFADSVKGRFTIFRDESENMVYLQMSGLRVEDTAVYHCARGSSNHYEAFDIWGQGTMVTVSSGGGGSGGGGSGGGGSQSVLTQPPSVSAAPGQKVTISCSGSSSNIGNNYVSWYQRLPGTAPKLLIYDNNKRPSGIPDRFSGSKSGTSATLGITGLQTGDEADYYCGAWDSSLSAPWVFGGGTKVTVLGAAAGAGGDYKDDDDKGAAAHHHHHH: 8

Turning to the following binder.
Request the reported standardized gMFI associated with NYA-2023 (scFv) scFv: GEVQLVESGGGVVQPGRSLTPSCSASGFSIRSYDIHWVRQAPGKGLEWVATISYDGSQKYFADSVKGRFTIFRDESENMVYLQMSGLRVEDTAVYHCARGSSGHYEAFDIWGQGTMVTVSSGGGGSGGGGSGGGGSQSVLTQPPSVSAAPGQKVTISCSGSSSNIGNWYVSWYQQLPGTAPKLLIYDNNKRPSGIPDRFSGSKSGTSATLGITGLQTGDEADYYCGTWDSSLSAPWVFGGGTKVTVLGAAAGAGGDYKDDDDKGAAAHHHHHH
4.92
